tested on: RWP1 cells; assay: Effect of anti-FZD5 Fabs on proliferation of pancreatic cancer cell lines (percent growth inhibition); assay type: cell-based, human; conditions: Fab 2 μg/ml
assay endpoint: percent growth inhibition, RWP1 2 μg/ml (%)

molecule | assay endpoint | value reported
Fab-2901: anti-FZD5 Fab with antibody variable region Fv-2901; CDR SEQ ID NOs: 35, 36, 40, 79, 116, 154 (antibody, V domains shown) VH: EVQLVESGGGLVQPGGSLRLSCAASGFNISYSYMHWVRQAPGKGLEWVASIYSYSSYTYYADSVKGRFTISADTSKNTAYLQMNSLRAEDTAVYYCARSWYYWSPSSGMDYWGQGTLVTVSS VL: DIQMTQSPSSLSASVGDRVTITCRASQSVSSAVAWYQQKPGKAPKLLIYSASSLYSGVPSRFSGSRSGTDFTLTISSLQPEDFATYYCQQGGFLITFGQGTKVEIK | percent growth inhibition, RWP1 2 μg/ml | −19.95
Fab-2923: anti-FZD5 Fab with antibody variable region Fv-2923; CDR SEQ ID NOs: 35, 36, 62, 100, 138, 162 (antibody, V domains shown) VH: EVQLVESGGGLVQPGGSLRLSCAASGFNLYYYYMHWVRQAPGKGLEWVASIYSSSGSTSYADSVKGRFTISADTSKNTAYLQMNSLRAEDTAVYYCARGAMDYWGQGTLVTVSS VL: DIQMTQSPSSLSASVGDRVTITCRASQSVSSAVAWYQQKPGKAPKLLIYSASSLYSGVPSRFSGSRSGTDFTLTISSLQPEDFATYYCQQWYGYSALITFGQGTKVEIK | percent growth inhibition, RWP1 2 μg/ml | 35.90
Fab-2903: anti-FZD5 Fab with antibody variable region Fv-2903; CDR SEQ ID NOs: 35, 36, 42, 81, 118, 155 (antibody, V domains shown) VH: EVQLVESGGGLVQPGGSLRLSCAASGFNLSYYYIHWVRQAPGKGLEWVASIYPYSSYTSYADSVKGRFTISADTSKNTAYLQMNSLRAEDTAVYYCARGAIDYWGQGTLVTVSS VL: DIQMTQSPSSLSASVGDRVTITCRASQSVSSAVAWYQQKPGKAPKLLIYSASSLYSGVPSRFSGSRSGTDFTLTISSLQPEDFATYYCQQWGGGSSLFTFGQGTKVEIK | percent growth inhibition, RWP1 2 μg/ml | 8.52
Fab-2934: anti-FZD5 Fab with antibody variable region Fv-2934; CDR SEQ ID NOs: 35, 36, 73, 110, 149, 155 (antibody, V domains shown) VH: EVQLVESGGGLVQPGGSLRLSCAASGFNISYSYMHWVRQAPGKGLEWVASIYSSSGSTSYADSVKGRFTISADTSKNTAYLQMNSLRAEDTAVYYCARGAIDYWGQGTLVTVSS VL: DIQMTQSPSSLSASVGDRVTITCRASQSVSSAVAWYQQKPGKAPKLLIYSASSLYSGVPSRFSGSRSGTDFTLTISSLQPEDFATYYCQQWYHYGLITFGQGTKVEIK | percent growth inhibition, RWP1 2 μg/ml | 7.90
Fab-2916: anti-FZD5 Fab with antibody variable region Fv-2916; CDR SEQ ID NOs: 35, 36, 55, 94, 131, 167 (antibody, V domains shown) VH: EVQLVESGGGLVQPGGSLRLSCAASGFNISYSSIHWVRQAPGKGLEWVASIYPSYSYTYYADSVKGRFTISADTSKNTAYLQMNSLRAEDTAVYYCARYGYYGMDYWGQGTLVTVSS VL: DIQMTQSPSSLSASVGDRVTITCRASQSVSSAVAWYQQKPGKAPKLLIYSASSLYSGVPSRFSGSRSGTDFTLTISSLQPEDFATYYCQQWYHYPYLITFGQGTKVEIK | percent growth inhibition, RWP1 2 μg/ml | 1.68
Fab-2920: anti-FZD5 Fab with antibody variable region Fv-2920; CDR SEQ ID NOs: 35, 36, 59, 98, 135, 170 (antibody, V domains shown) VH: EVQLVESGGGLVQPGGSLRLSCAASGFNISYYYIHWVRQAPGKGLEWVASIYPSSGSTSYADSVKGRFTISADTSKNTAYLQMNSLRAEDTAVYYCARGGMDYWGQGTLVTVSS VL: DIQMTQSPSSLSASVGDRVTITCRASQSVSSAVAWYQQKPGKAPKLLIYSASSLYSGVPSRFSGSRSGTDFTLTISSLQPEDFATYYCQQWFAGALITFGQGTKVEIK | percent growth inhibition, RWP1 2 μg/ml | −16.26
Fab-2902: anti-FZD5 Fab with antibody variable region Fv-2902; CDR SEQ ID NOs: 35, 36, 41, 80, 117, 153 (antibody, V domains shown) VH: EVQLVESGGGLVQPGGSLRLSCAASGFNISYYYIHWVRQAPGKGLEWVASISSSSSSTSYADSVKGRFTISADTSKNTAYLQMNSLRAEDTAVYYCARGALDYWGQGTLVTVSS VL: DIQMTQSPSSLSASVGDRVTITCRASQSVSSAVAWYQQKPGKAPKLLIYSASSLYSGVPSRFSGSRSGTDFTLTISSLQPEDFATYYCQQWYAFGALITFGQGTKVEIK | percent growth inhibition, RWP1 2 μg/ml | 26.56
Fab-2914: anti-FZD5 Fab with antibody variable region Fv-2914; CDR SEQ ID NOs: 35, 36, 53, 92, 129, 162 (antibody, V domains shown) VH: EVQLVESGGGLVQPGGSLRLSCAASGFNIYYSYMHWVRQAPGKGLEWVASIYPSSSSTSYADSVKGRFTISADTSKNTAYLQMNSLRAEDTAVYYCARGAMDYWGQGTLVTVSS VL: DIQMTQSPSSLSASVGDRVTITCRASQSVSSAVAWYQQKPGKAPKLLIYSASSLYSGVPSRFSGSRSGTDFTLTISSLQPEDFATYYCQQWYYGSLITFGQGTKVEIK | percent growth inhibition, RWP1 2 μg/ml | 68.03
